Exercise: for every item that follows, state its recorded growth inhibition.
# Assay: NCI Yeast Anticancer Drug Screen. Data for the mlh1 rad18 strain (AID 175)
# Run Conditions: S. cerevisiae mlh1 rad18 strain growth inhibition; at 50.0 µM; active compounds read high
This is part of a sample that, as a whole, favours compounds with a hit. Of some 79,000 tested, about 15% had one in any assay.
Supply the numeric figure in %, leaving out any unit text.

Consider the compound shown here: CCOC(=O)C(C)C1CCCc2c(C)ccc(C)c21 (centres undefined) What is its recorded growth inhibition?
2.7

Do the same for CCN(CC)CN1C(=O)C2C3C=CC(C2C1=O)C1C2C(=O)N(CN(CC)CC)C(=O)C2C31 (centres undefined) please
-45.9

Do the same for Nc1ccc(C(=O)Nc2nccs2)cc1 please
4.75

Do the same for COc1cc2c(cc1OC)C(c1ccccc1CCCCl)=NCC2 please
-44.7

Do the same for Cn1c(N)cc(=O)n(C)c1=O please
27

Do the same for Nc1ccccc1C(=O)N/N=C/c1cccnc1 please
-16.6

Do the same for Cn1c(C2CCc3cc(O)ccc3C2)cccc1=O (centres undefined) please
-4.35

Do the same for CCCCCCCCCCCCSCC(=O)O please
-25.8

Do the same for Cc1ccc(S(=O)(=O)N/N=C/C(C)c2cccnc2)cc1 (centres undefined) please
7.05

Do the same for COc1ccc(NC(=O)Cc2cc3ccccc3oc2=O)cc1 please
7.95

Do the same for CC(=O)n1oc2c(Br)cc(Br)cc2c1=O please
15.1

Do the same for CC[N+]1(C)CCOCC1 please
-8.15

Do the same for Nc1ccc2ccccc2c1C(=O)c1ccccc1 please
-5.75

Do the same for C=CC(=O)Nc1ccc(Br)cc1 please
2.35
